- target-under-test: Glucagon-like peptide 1 receptor (Homo sapiens, UniProt P43220)
- Sequence (P43220 whole entry): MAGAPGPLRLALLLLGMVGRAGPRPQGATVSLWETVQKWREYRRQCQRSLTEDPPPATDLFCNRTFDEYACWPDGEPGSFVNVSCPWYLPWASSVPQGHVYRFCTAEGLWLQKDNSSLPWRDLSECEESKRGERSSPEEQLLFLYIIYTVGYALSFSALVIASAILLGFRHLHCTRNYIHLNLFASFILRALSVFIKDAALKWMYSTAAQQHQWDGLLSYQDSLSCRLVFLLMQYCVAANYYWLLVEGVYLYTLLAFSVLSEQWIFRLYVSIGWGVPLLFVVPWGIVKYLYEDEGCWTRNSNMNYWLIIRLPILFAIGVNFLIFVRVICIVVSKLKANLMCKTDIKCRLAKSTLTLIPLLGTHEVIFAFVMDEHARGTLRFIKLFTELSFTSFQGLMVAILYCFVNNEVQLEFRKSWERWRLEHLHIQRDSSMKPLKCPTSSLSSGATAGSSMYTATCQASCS
- method-notes: Agonist activity at human GLP-1R expressed in CHO cells assessed as cAMP accumulation incubated for 30 mins relative to GLP1
- Type: functional, cell-based
Positions of bridges follow the written chain, without caps; N, C: chain ends. Non-standard residues stand in square brackets, D forms with d. Residues, ends and D or L forms follow the SMILES beside them. Bip(2'-Et-4'-OMe) = CCc1cc(OC)ccc1-c1ccc(C[C@H](N)C(=O)O)cc1; Tyr(3-I) = N[C@@H](Cc1ccc(O)c(I)c1)C(=O)O; αMePhe(2-F) = C[C@](N)(Cc1ccccc1F)C(=O)O; hhPhe = N[C@@H](CCCc1ccccc1)C(=O)O; Aad = N[C@@H](CCCC(=O)O)C(=O)O; Aib = CC(C)(N)C(=O)O
reported-property: Activity

### Prompt Give reported Activity for CCc1cc(OC)ccc1-c1ccc(C[C@H](NC(=O)[C@H](CC(=O)O)NC(=O)[C@H](CO)NC(=O)[C@@H](NC(=O)[C@](C)(Cc2ccccc2F)NC(=O)[C@@H](NC(=O)CNC(=O)[C@H](CCC(=O)O)NC(=O)C(C)(C)NC(=O)[C@@H](N)Cc2cnc[nH]2)[C@@H](C)O)[C@@H](C)O)C(=O)N[C@@H](Cc2ccc(O)c(I)c2)C(N)=O)cc1 (H-H[Aib]EGT[αMePhe(2-F)]TSD[Bip(2'-Et-4'-OMe)][Tyr(3-I)]-NH2) (Glucagon-like peptide 1 receptor (Homo sapiens, UniProt P43220))
### Response > 85%

### Prompt Fetch value of Activity on Glucagon-like peptide 1 receptor (Homo sapiens, UniProt P43220) for CCc1cc(OC)ccc1-c1ccc(C[C@H](NC(=O)[C@@H]2CCCC(=O)NCCCC[C@H](NC(=O)CNC(=O)[C@H](CCC(=O)O)NC(=O)C(C)(C)NC(=O)[C@@H](N)Cc3cnc[nH]3)C(=O)N[C@@](C)(Cc3ccccc3F)C(=O)N[C@@H]([C@@H](C)O)C(=O)N[C@@H](CO)C(=O)N2)C(=O)N[C@@H](CCCc2ccccc2)C(N)=O)cc1 (H-H[Aib]EGK[αMePhe(2-F)]TS[Aad][Bip(2'-Et-4'-OMe)][hhPhe]-NH2; lactam 5-9) .
### Response > 85%

### Prompt Name the value of Activity reported for CCc1cc(OC)ccc1-c1ccc(C[C@H](NC(=O)[C@H](CC(=O)O)NC(=O)[C@H](CO)NC(=O)[C@@H](NC(=O)[C@](C)(Cc2ccccc2F)NC(=O)[C@H]2CCSSCC[C@H](NC(=O)[C@@H](N)Cc3cnc[nH]3)C(=O)N[C@@H](CCC(=O)O)C(=O)NCC(=O)N2)[C@@H](C)O)C(=O)N[C@@H](CCCc2ccccc2)C(N)=O)cc1 when tested on Glucagon-like peptide 1 receptor (Homo sapiens, UniProt P43220).
### Response > 85%
